Where do these numbers come from? They come from PubChem BioAssay (NCI).

Assignment: determine reported growth inhibition for the given compounds.
ASSAY OVERVIEW: NCI Yeast Anticancer Drug Screen. Data for the rad50 strain (AID 155);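 note: 0% = growth of vehicle-only cultures of the same strain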
ASSAY CONTEXT: S. cerevisiae rad50 strain growth inhibition; at 50.0 µM; active compounds read high
About 79,000 compounds went through this panel and 15% of them were active in at least one assay; those are over-represented in the sample as a whole.
Give your result in % as a bare value.

growth inhibition measured on `NS(=O)(=O)c1ccc(N=Nc2ccc([As](=O)(O)O)cc2)cc1` = 43

What the record says about `c1cc2c(cc1NC1=NCCO1)OCO2` : growth inhibition is -23.2

Looking up `CCOC(=O)C(CC)(CC)C(=O)OCC` , I found its growth inhibition recorded as -18.9

Looking up `CCN(CC)CCn1c(=O)c2ccccc2n(CCN(CC)CC)c1=O` , I found its growth inhibition recorded as 19.6

Field growth inhibition (entry [CH3][Sn]([CH3])([O]S(=O)c1ccc(Cl)cc1)[O]S(=O)c1ccc(Cl)cc1 (stereo not given) ) reads 15.7

The value of growth inhibition measured for the compound `NC(=O)OC(CCl)CCl` turned out to be 35.2

Field growth inhibition (entry `CC1(C)N=C(N)N=C(N)N1c1ccc(CCCCc2cc(Cl)ccc2S(=O)(=O)F)c(Cl)c1` ) reads 99.3

# growth inhibition of CC(=O)OCC1OC(S[As](C)C)C(OC(C)=O)C(OC(C)=O)C1OC(C)=O (stereo not given) = -2.85

The measured growth inhibition associated with `CC(=O)[CH-]C(C)=O.F[P-](F)(F)(F)(F)F.[Co+3].[NH-]CC[NH-].[NH-]CC[NH-]` reads -1.2

NC(Cc1ccc2c(c1)OCO2)c1ccccc1 (stereo not given) yielded growth inhibition of -0.1

Item: `ClCCCCBr` | growth inhibition: 17.6

// `O=P(Oc1ccccc1)(Oc1ccccc1)Oc1c(Cl)c(Cl)c(O)c(Cl)c1Cl` : growth inhibition value = 23.6

Summary for this compound, OC1C2CCC1C(N1CCOCC1)CC2 (stereo not given) : growth inhibition is 0.25

growth inhibition reading for `Nc1nc(N)c(N=Nc2ccc([As](=O)(O)O)c(O)c2)c(N)n1` : -4

Data point: `S=C(SP(SC(=S)N1CCCCC1)SC(=S)N1CCCCC1)N1CCCCC1` ; growth inhibition = 28.9

So for `CCOP(=O)(Cc1ccc(N)cc1)OCC` , the logged growth inhibition turned out to be -23

So for `O=[N+]([O-])c1cccc(C(Cl)Cl)c1` , the logged growth inhibition turned out to be 30.5

CC(C)C1C=Cc2ccccc21 (stereo not given) yielded growth inhibition of 13.8

The reported value for `S=C([SH2+])[SH2+].S=C([SH2+])[SH2+].[Pt+2].c1ccc(C[P+](c2ccccc2)(c2ccccc2)c2ccccc2)cc1` in terms of growth inhibition is 44.7

Field growth inhibition (entry `O=C(O)c1cc(Cl)nc(Cl)c1` ) reads -2.1

Please fill in: growth inhibition reported for CCOC(=O)C(C[Si](C)(C)C)P(=O)(OCC)OCC (stereo not given) = -24.6

Data point: `c1cc2c(cc1NC1=NCCO1)CCC2` ; growth inhibition = 3.65

The compound listed as NC(c1ccccc1)P(=O)(O)O (stereo not given) shows growth inhibition equal to -12.7

Notebook: `[N-]=[N+]=NC(=O)Nc1ccccc1F` , growth inhibition read as -6.4

So, C[N+]1(CCCl)CCc2ccc([N+](=O)[O-])cc2C1 (stereo not given) ? Its growth inhibition was -36.9
